- systemUnderTest: human ether-à-go-go-related gene (hERG) potassium channel (human, UniProt Q12809);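 further: peak tail current of the secondary pulse compared with the same well before compound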
- Sequence (Q12809 whole entry, looked up): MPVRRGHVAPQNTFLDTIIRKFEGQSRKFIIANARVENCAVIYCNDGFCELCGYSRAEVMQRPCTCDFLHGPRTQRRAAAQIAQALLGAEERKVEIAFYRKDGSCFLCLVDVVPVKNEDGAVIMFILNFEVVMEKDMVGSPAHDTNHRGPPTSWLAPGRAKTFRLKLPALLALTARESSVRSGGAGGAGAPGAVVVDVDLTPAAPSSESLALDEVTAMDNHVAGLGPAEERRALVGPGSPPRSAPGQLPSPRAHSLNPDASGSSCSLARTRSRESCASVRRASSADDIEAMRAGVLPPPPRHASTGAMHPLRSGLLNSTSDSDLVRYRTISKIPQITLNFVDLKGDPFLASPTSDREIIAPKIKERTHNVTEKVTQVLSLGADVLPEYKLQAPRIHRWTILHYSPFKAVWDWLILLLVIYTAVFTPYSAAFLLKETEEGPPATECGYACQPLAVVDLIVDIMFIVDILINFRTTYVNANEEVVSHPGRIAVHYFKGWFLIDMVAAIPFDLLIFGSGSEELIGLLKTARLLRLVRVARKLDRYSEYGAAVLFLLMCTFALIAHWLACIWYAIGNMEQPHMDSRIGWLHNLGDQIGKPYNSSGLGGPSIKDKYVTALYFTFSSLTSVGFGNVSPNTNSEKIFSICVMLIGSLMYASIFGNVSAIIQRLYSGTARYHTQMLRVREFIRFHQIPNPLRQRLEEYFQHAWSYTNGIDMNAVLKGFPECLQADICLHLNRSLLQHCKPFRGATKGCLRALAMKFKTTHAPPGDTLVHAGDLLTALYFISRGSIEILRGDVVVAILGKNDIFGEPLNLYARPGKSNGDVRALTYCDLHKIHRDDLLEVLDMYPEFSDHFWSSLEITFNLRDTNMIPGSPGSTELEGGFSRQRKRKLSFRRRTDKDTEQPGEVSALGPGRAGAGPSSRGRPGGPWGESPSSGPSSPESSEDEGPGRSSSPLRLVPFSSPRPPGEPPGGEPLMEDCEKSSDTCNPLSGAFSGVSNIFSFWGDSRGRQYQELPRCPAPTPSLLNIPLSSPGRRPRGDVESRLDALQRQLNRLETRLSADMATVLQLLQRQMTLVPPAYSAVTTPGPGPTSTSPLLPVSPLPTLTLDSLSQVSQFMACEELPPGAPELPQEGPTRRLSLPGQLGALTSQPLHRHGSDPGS
- protocolSummary: primary screen, population patch clamp on CHO cells stably expressing hERG; higher = less effect of the substance
Screen size: about 310,000 compounds; about 14,000 (4.5%) showed an effect of 50% or more. The effect is printed as a negative number. The sample holds strong results, similar compounds and a random draw of the others, so the mix is not that of the screen.
Measured hERG current change (%, negative = inhibition) at 10uM of individual entries
metricName: hERG current change (%, negative = inhibition) at 10uM (%)

>>> readoutvalue("Cc1nn(C(C)C(=O)NCCCN2CCCCCC2)c(=O)c2c1sc1ccccc12 (centres unmarked)")
-28.1
>>> readoutvalue("Cc1ccccc1CN(CC(=O)Nc1cccc([N+](=O)[O-])c1)S(=O)(=O)c1ccc(Cl)cc1")
15.1
>>> readoutvalue("CCN(CC)CCCNC(=O)C(C)n1nc(C)c2sc3ccccc3c2c1=O (centres unmarked)")
-19.7
>>> readoutvalue("Cc1nn(C(C)C(=O)NCCCN2CCCCC2C)c(=O)c2c1sc1ccccc12 (centres unmarked)")
-5.22
>>> readoutvalue("Cc1nn(C(C)C(=O)NCCCN(Cc2ccccc2)C(C)C)c(=O)c2c1sc1ccccc12 (centres unmarked)")
-11.7

----------
- systemUnderTest: human ether-à-go-go-related gene (hERG) potassium channel (human, UniProt Q12809);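 further: peak tail current of the secondary pulse compared with the same well before compound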
- protocolSummary: primary screen, population patch clamp on CHO cells stably expressing hERG; higher = less effect of the substance
The campaign covered roughly 310,000 compounds. About 14,000 (4.5%) showed an effect of 50% or more. The effect is printed as a negative number. Many of the other results were omitted from the sample, so strong results are more common in it than they were.
metricName: hERG current change (%, negative = inhibition) at 10uM (%)

>>> readoutvalue("CC(C)Sc1cc(N2CCOCC2)nc(-c2ccccc2)n1")
2.76
>>> readoutvalue("OCCOCCn1c(C(CO)Nc2nc(-c3ccccc3Br)cs2)nc2ccccc21 (centres unmarked)")
-72
>>> readoutvalue("Cc1ccc(-c2cc(-c3ccccc3)no2)c(O)c1")
17.4
>>> readoutvalue("CCN1C(=O)C(CC(=O)Nc2ccc(OC)cc2)N(CCc2ccc(OC)cc2)C1=S (centres unmarked)")
-1.17
>>> readoutvalue("OCCOCCn1c(C(CO)Nc2nc(-c3cccc(Br)c3)cs2)nc2ccccc21 (centres unmarked)")
-12.5

----------
- systemUnderTest: human ether-à-go-go-related gene (hERG) potassium channel (human, UniProt Q12809);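 further: peak tail current of the secondary pulse compared with the same well before compound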
- protocolSummary: primary screen, population patch clamp on CHO cells stably expressing hERG; higher = less effect of the substance
Hit rate of the full screen: of about 310,000 compounds, about 14,000 (4.5%) showed an effect of 50% or more. Effects have a minus sign here. This is one part of a sample in which strong results are shown more often than they occur.
metricName: hERG current change (%, negative = inhibition) at 10uM (%)

>>> readoutvalue("Cc1cccc(C(=O)N2CCC(=O)N(C(COCc3ccc(Cl)cc3)Cc3ccccc3)CC2)c1 (stereo not shown)")
-25.7
>>> readoutvalue("Cc1c(OCC(=O)N2C[C@H]3C[C@@H](C2)c2cccc(=O)n2C3)ccc2c3c(c(=O)oc12)CCCC3")
-13.5
>>> readoutvalue("Cc1coc2c(C)c3oc(=O)c(CCC(=O)N4C[C@H]5C[C@@H](C4)c4cccc(=O)n4C5)c(C)c3cc12")
-50.6
>>> readoutvalue("CCOC(=O)N1CCN(C(=O)CCn2c(=S)[nH]c3cc(OCC)c(OCC)cc3c2=O)CC1")
-7.21
